- Test system: 786-0 renal
- protocol: NCI-60 one-dose screen, 48 h
- test-settings: 10 µM unless noted
About 83,000 compounds went through this panel and 20% of them were active in at least one assay; those are over-represented in the sample as a whole. Active and inactive are the calls of the source. How the source made its calls: active means growth percent below 10; inactive means the rest.
Return exactly one item of yes for active, no for inactive

Below are worked cases with known answers.
compound	cat
COCCn1cc(-c2nc(-c3cn(CCOC)c4ncccc34)cs2)c2cc(F)ccc21	no
COc1ccc(C2[C@@H](c3ccccc3)C(=O)N2c2cc(OC)c(OC)c(OC)c2)cc1F (stereo not given in full)	no
COc1ccc(-c2cc(C(=O)N3N=C(c4ccc(N)cc4)CC3c3ccc(Cl)cc3)c3cc(OC)ccc3n2)cc1 (stereo not given)	no
CSc1ccc2c3c(n(C[C@H](O)CO)c(=O)c2c1)-c1ccccc1C3=O	no
COc1nc(/C=C\Nc2ccc3c(c2)OCCOCCOCCOCCO3)nc(OC)n1	no
O=Nc1ccc(NC(=O)Nc2ccc([N+](=O)[O-])cc2)cc1	no
COc1cc2c(cc1-c1c(C)noc1C)ncc1nc(CN3CCOCC3)n([C@H](C)COC(F)F)c12	no
N#Cc1c(-c2cccc(Cl)c2)cc(-c2cccnc2)[nH]c1=O	no
COc1ccc(CNc2ccc3nc(NC(=O)CN4CCCCCC4)sc3c2)cc1	no

We now examine a further compound.
Request: Which outcome was entered for the compound COc1ccc2cc(C(=O)N3CCC([C@@H](C)C(=O)NCc4ccc5c(c4)OCO5)CC3)[nH]c2c1 in this test?
Result: yes
